# procedure-details: AUC (0 to 24 hrs) in dog at 3 mg/kg, po
# Type: ADME, organism-based, Canis lupus familiaris
# Parameters: time < 24 hr, dose 3 mg/kg, route oral
# measurement-setup: plasma
measurement-label: AUC(0-t) at 24 h (µM·h)
Quick note: give the figure in µM·h, leave out the unit.

Prompt line: Please indicate AUC(0-t) at 24 h recorded for Nc1ncnc2c1ncn2[C@@H]1O[C@H](OCP(=O)(O)O)C=C1F
Response line: 4.9

* * *

# procedure-details: Drug level in dog kidney at 3 mg/kg, po after 24 hrs by liquid scintillation counting
# Type: ADME, organism-based, Canis lupus familiaris
# Parameters: dose 3 mg/kg, route oral
# measurement-setup: in vivo
measurement-label: Drug uptake (µg/g)
Quick note: give the figure in µg/g, leave out the unit.

Prompt line: Please indicate Drug uptake recorded for Nc1ncnc2c1ncn2[C@@H]1O[C@H](OCP(=O)(O)O)C=C1F
Response line: 2.49

* * *

# procedure-details: Cytotoxicity against CHO cells after 120 hrs by Cell-Titer Glo assay
# Type: cell-based, Cricetulus griseus
# measurement-setup: chinese hamster
measurement-label: CC50 at 120 h (µM)
Quick note: give the figure in µM, leave out the unit.

Prompt line: Please indicate CC50 at 120 h recorded for Nc1ccn(C[C@@H](CO)OCP(=O)(O)O)c(=O)n1.O.O
Response line: 520

* * *

# procedure-details: Renal clearance in dog urine at 3 mg/kg, po
# Type: ADME, organism-based, Canis lupus familiaris
# Set-up: dose 3 mg/kg, route oral
# measurement-setup: read-out: CL_renal (converted)
measurement-label: CL renal
Give the number first and the unit second.

Prompt line: Please indicate CL renal recorded for Nc1ncnc2c1ncn2[C@@H]1O[C@H](OCP(=O)(O)O)C=C1F [GS-9148]
Response line: 7.83 mL/min/kg

* * *

# assayed-system: UniProtKB Q4U2R8
# Sequence (Q4U2R8 whole entry): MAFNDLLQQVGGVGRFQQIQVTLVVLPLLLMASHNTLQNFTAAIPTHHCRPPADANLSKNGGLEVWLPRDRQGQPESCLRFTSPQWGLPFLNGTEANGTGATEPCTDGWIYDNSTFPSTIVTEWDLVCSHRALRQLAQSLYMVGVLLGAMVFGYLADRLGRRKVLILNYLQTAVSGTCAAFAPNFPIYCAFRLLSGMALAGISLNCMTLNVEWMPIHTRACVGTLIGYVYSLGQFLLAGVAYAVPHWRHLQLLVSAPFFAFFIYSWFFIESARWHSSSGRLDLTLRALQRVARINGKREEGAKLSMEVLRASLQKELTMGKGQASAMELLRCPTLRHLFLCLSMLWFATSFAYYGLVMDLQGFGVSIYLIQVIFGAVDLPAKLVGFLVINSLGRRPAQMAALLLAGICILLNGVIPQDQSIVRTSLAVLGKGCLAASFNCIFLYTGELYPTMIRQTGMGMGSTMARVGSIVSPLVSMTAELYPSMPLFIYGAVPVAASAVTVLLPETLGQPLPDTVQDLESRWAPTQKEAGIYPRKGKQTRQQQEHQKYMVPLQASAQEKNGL
# procedure-details: Activity of human OAT1 transfected in CHO cells
# Type: cell-based
measurement-label: Km (µM)
Quick note: give the figure in µM, leave out the unit.

Prompt line: Please indicate Km recorded for C[C@H](Cn1cnc2c(N)ncnc21)OCP(=O)(O)O [TENOFOVIR ANHYDROUS]
Response line: 33.8

* * *

# procedure-details: Percent of urinary material present as GS-9148 in dog urine at 3 mg/kg, po
measurement-label: percent of urinary material as GS-9148 (%)
Quick note: give the figure in %, leave out the unit.

Prompt line: Please indicate percent of urinary material as GS-9148 recorded for Nc1ncnc2c1ncn2[C@@H]1O[C@H](OCP(=O)(O)O)C=C1F [GS-9148]
Response line: 84
